// data source = paper PMC5597622

SYSTEM_TESTED: pd-FXa (Homo sapiens)
Construct: the heavy chain derived from α or β FXa (α/β), the FXa light chain (LC); purchased Haematologic Technologies (Essex Junction, VT, USA); host or cells: human plasma
Format: biochemical
RESULT_TYPE: pKi
In textbook form, pKi equals minus log to base ten of the concentration in mol/L.

Lab note: pd-FXa (Homo sapiens) assay, enter pKi for rTAP (YNRLCIKPRDWIDECDSNEGGERAYFRNGKGGCDSFWICPEDHTGADYYSSYRDCFNACI) here
9.06

---

SYSTEM_TESTED: FXa-C (Homo sapiens, UniProt P00742, E317A/INS311KKFVPPQKA/K316L/N312Y/R313K/T315D/T318A)
Construct: made in house
Format: biochemical, human-snake chimera
REPORTED_CONDITIONS: rTAP 0.5–100 nM, 1 nM FXa, 30 min
RESULT_TYPE: Ki

Quote Ki reported for rTAP (YNRLCIKPRDWIDECDSNEGGERAYFRNGKGGCDSFWICPEDHTGADYYSSYRDCFNACI) please.
0.0202 µM

---

SYSTEM_TESTED: purified recombinant P. textilis venom FXa (v-FXa) (Pseudonaja textilis, UniProt Q56VR3)
ASSAY_PROTOCOL: biochemical
pIC50: −log10 of the molar value.
RESULT_TYPE: pIC50

{"COMPOUND": "COc1ccc(-n2nc(C(N)=O)c3c2C(=O)N(c2ccc(N4CCCCC4=O)cc2)CC3)cc1 [Apixaban]", "pIC50": "≤ 4.00"}

Give me measured pIC50, please, for this compound: O=C(NC[C@H]1CN(c2ccc(N3CCOCC3=O)cc2)C(=O)O1)c1ccc(Cl)s1 [Rivaroxaban]
≤ 4.52

---

SYSTEM_TESTED: RVV-X activated P. textilis liver FX (Pseudonaja textilis, UniProt Q1L659)
ASSAY_PROTOCOL: biochemical
RESULT_TYPE: pIC50
Hey, just a heads up that pIC50 is the negative log base 10 of the concentration in molar.

Give pIC50; test system RVV-X activated P. textilis liver FX (Pseudonaja textilis, UniProt Q1L659); molecule COc1ccc(-n2nc(C(N)=O)c3c2C(=O)N(c2ccc(N4CCCCC4=O)cc2)CC3)cc1
7.92

---

SYSTEM_TESTED: wt-FXa (Homo sapiens, UniProt P00742)
Construct: made in house; host or cells: HEK293 (co-transfected with furin)
ASSAY_PROTOCOL: Inhibition of FXa by TFPI and rTAP (residual amidolytic activity)
Type: biochemical
RESULT_TYPE: Ki (nM)
Answer with a number only, understood to be in nM.

Return Ki for the following substance: rTAP (YNRLCIKPRDWIDECDSNEGGERAYFRNGKGGCDSFWICPEDHTGADYYSSYRDCFNACI)
0.7
